- METHOD: Rat B/P (brain disposition)
- Format: in vivo, male Sprague-Dawley rats
- CONDITIONS_USED: male, Sprague-Dawley, brain/plasma, oral gavage 1 mg/kg, time point 1.0 h, mean ± stdev, n = 3
- Experimental: Brain disposition was evaluated for each compound in male Sprague-Dawley rats (n=3, standard body weight). […] Concentrations of test compound in plasma and brain were quantified against matrix matched calibration standards. The total plasma and brain concentration data are presented in Table 7 alongside the calculated brain Kp (total brain concentration:total plasma concentration ratio).
PROPERTY: Kp at 1 h

>>> observed("[2H]C([2H])([2H])c1c2c(nn1C1CCOCC1)OCCCn1nc(Cl)c3cnc(nc31)N2")
1.76
